protein stability index: recorded values
assay: protein stability index of a GFP-peptide fusion (yeast GPS) (PSI 1-4); higher = more stable; sorted into four equal gates, so the index is relative within each strain; conditions: doa10∆
measured-metric: protein stability index

sequence-data: IEPVTKVSSLKMFIQRI [YCS4]
measured-metric: protein stability index
assay-value: 2.91
//
sequence-data: RWYQLIATGCKDGRIRI [YGL100W/SEH1]
measured-metric: protein stability index
assay-value: 2.31
//
sequence-data: KVEKRVLGLTILRGEQI [SMB1]
measured-metric: protein stability index
assay-value: 1.69
//
sequence-data: CIIFITFEFINIAFDAH [YML031W/NDC1]
measured-metric: protein stability index
assay-value: 1.23
//
sequence-data: LDEVDAALDITNVQRIA [SMC1]
measured-metric: protein stability index
assay-value: 3.16
//
sequence-data: DEDDDLDEDDVNADDDD [RPB4]
measured-metric: protein stability index
assay-value: 3.12
//
sequence-data: EDGTSASFQIVEEDHTL [RPC19]
measured-metric: protein stability index
assay-value: 3.02
//
sequence-data: GGFTNLTSQAPQTTQMF [YDL088C/ASM4]
measured-metric: protein stability index
assay-value: 3.35
//
sequence-data: IDAMKAVAEAYNNRSLL [RPN6]
measured-metric: protein stability index
assay-value: 1.7
//
sequence-data: SYYDNDLDETTQTFNGS [YML031W/NDC1]
measured-metric: protein stability index
assay-value: 2.77
//
sequence-data: ISVSSRSDREYPLLIRM [SRP14]
measured-metric: protein stability index
assay-value: 2.56
//
sequence-data: KHLWDQKSLAALKKSRS [RPC17]
measured-metric: protein stability index
assay-value: 2.75
//
sequence-data: MASGSTTFTKVAAKWNT [PRP8]
measured-metric: protein stability index
assay-value: 2.58
//
sequence-data: KCPGCLNITTVFSHAQT [RPS27A]
measured-metric: protein stability index
assay-value: 2.76

###

Measured protein stability index, listed per entry.
test: protein stability index of a GFP-peptide fusion (yeast GPS) (PSI 1-4); higher = more stable; sorted into four equal gates, so the index is relative within each strain; conditions: san1∆

sequence-data: IGTANYKPLIEERMGQI [SMC4]
protein stability index: 3.37

sequence-data: LELVNTPLTENILIASL [YCG1]
protein stability index: 1.93

sequence-data: LELLNQLDGFSSDDRVK [RPT5]
protein stability index: 2.96

sequence-data: LRRVNARYVIATSTKVS [RPL6A]
protein stability index: 1.25

sequence-data: TSANGIVQFTYGGDGLD [RPO31]
protein stability index: 2.24

sequence-data: MESIGSDILTAEKMRGN [RRP4]
protein stability index: 3.14

sequence-data: TTLKLSPSPILLTSAGC [NUT1]
protein stability index: 1.45

sequence-data: WDLQLQEKESQIQLAES [SMC4]
protein stability index: 2.82

sequence-data: ANKEKRAIILERNAAYQ [RPL7A]
protein stability index: 1.14

sequence-data: ALERNWPIVNSKVYFNN [RPN12]
protein stability index: 1.38

sequence-data: LDEVDAALDITNVQRIA [SMC1]
protein stability index: 3.14

sequence-data: ENALIELKNELAKTKEN [YIL149C/MLP2]
protein stability index: 2.98

sequence-data: DYIEFNITFSEELVSLA [YJL039C/NUP192]
protein stability index: 1.54

sequence-data: TISKESTPDQRKRVYNI [ESC2]
protein stability index: 3.11

sequence-data: HTGKKLMAQIFFGPTYY [RPB2]
protein stability index: 1.97

sequence-data: HGVSFKKRAPRAVKEIK [RPL31A]
protein stability index: 2.97

sequence-data: FKKTLRSRISSPHGLIN [SRB4]
protein stability index: 2.53

sequence-data: LKELRIDNSPQAISYLH [GRR1]
protein stability index: 2.08

sequence-data: RIQNRVKLGLNSKMPTR [PRP8]
protein stability index: 2.74

sequence-data: QQAQARLQQGRRLPMTM [SNF2]
protein stability index: 3.24

sequence-data: NPLMYSGGNNTATIINN [PCI8]
protein stability index: 3.12

sequence-data: LGKTIQTISLLTYLYEM [SNF2]
protein stability index: 2.47

sequence-data: VPRLFDLVKPKNPKFSN [SMC4]
protein stability index: 2.45

sequence-data: GWDSLASRNVWSFYNGN [SNU114]
protein stability index: 3.48

sequence-data: GDNTSDVDMEDRNLTEF [RRI1]
protein stability index: 3.27

sequence-data: MTDIWNTLIPESSLTIS [ECM29]
protein stability index: 2.14

sequence-data: KIESLAGGGESDSALIL [UBP6]
protein stability index: 3.49

sequence-data: ESKSDDNSATSYYELET [RRI1]
protein stability index: 3.13

sequence-data: LHCCIQLLMGDIPELSF [RPN3]
protein stability index: 1.78

sequence-data: QQRGITYLNEVLEKDAA [YGR119C/NUP57]
protein stability index: 3.33
